Assignment: determine reported IC50 for the given molecules.
# ASSAY_TARGET: acetylcholinesterase (AChE) isolated from Electrophorus electricus (Electrophorus electricus)
# Construct: AChE isolated from Electrophorus electricus; from tissue
# Sequence (O42275 24-633): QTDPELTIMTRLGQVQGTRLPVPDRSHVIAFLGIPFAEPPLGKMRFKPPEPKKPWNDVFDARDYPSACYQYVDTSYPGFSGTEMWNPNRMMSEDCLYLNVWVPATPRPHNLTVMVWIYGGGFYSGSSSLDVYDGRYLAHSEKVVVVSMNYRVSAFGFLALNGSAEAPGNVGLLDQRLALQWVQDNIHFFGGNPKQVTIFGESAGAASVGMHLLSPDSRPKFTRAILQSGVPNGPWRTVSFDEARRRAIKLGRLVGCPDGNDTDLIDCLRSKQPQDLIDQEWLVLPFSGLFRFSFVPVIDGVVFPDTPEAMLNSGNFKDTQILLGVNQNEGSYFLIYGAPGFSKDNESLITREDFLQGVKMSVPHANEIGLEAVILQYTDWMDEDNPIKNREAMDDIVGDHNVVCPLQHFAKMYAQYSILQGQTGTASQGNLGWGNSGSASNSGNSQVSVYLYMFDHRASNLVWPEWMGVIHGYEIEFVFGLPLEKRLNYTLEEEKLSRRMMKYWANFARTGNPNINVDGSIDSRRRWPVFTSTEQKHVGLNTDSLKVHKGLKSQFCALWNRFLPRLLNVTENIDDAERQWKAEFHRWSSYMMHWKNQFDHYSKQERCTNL
# PROTOCOL_DETAILS: biochemical
# EXPERIMENTAL_CONDITIONS: AChE isolated from Electrophorus electricus; read-out: AChE IC50
Answer format: numeric, nM implied, no suffix.

Kindly note the recorded IC50 for CC[C@H](C)C(=O)N[C@H]1CCC23C[C@]24C(=O)C[C@]2(C)[C@@H]([C@H](C)N(C)C)[C@H](O)C[C@@]2(C)[C@@H]4CC[C@H]3[C@]1(C)CN (stereo partly shown) , which is 637

Kindly note the recorded IC50 for C[C@@H]([C@H]1[C@H](O)C[C@@]2(C)[C@@H]3CC[C@@H]4C(=CC[C@H](NC(=O)C(C)(C)C)[C@@]4(C)CO)C[C@H]3C(=O)C[C@]12C)N(C)C , which is 4830

Kindly note the recorded IC50 for CC(C)C1=N[C@H]2CCC34C[C@]35C(=O)C[C@]3(C)[C@@H]([C@H](C)N(C)C)[C@H](OC(=O)C(C)(C)C)C[C@@]3(C)[C@@H]5CC[C@H]4[C@]2(C)CO1 (stereo partly shown) , which is 181

Kindly note the recorded IC50 for CCC(C)C1=N[C@H]2CC=C3C[C@H]4C(=O)C[C@]5(C)[C@@H]([C@H](C)N(C)C)[C@H](O)C[C@@]5(C)[C@@H]4CC[C@H]3[C@]2(C)CO1 (mixture of isomers) , which is 27

Kindly note the recorded IC50 for C[C@@H]([C@H]1[C@H](O)C[C@@]2(C)[C@@H]3CC[C@@H]4C(=CC[C@@H]5N=C(C6CCCCC6)OC[C@]54C)C[C@H]3C(=O)C[C@]12C)N(C)C , which is 403
